Field pIC50: reported value for Mineralocorticoid receptor (Homo sapiens, UniProt P08235); entries drawn from several documents.
TEST_TARGET: Mineralocorticoid receptor (Homo sapiens, UniProt P08235)
Sequence (P08235 whole entry): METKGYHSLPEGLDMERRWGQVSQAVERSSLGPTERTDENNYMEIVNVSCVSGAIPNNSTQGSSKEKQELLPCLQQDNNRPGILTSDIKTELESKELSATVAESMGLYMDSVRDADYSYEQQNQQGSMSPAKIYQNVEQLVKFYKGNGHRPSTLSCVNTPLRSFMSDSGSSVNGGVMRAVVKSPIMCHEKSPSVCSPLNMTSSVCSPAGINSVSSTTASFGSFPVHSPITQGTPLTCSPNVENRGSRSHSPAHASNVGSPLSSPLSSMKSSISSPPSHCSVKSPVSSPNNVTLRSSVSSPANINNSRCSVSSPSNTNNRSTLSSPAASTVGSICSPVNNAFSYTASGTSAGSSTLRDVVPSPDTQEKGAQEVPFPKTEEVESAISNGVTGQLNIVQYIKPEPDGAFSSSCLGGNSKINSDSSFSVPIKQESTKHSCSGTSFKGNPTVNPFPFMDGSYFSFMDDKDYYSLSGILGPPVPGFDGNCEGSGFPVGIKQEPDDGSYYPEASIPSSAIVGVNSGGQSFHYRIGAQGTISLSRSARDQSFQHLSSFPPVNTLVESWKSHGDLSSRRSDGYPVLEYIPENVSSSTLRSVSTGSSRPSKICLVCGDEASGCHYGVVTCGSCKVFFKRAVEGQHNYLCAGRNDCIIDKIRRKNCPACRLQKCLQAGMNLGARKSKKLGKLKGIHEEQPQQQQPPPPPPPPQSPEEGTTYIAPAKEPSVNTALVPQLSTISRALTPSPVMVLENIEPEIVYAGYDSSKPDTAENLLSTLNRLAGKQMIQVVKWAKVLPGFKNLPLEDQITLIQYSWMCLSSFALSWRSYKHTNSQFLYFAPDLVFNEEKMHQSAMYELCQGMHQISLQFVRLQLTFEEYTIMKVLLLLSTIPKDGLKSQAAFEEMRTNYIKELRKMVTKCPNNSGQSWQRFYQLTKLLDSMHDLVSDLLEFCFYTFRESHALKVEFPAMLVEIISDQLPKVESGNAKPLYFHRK
pIC50: −log10 of the molar value.
MEASUREMENT_TYPE: pIC50

- Cc1noc(=O)c2ccc(NC(=O)C(O)(Cc3ccccc3)CC(C)(C)c3cc(F)ccc3O)cc12 (centres undefined): 6.98
- COc1cc(CNC(=O)[C@@]2(Cc3ccccc3)OC(=O)N(C3CCN(C(=O)C(F)(F)F)CC3)C2=O)cc(OC)c1: 5.54
- CC[C@@H](Cc1ccc(O)c(C)c1C)NS(=O)(=O)c1c(C)cc(C)cc1C: 6.57
- Cc1ccc(F)cc1C(C)(C)CC(O)(Cc1cc2cnccc2[nH]1)C(C)(C)C (racemic): 6.14
- CC1=CC(C)(C)Nc2ccc3c(c21)/C(=C/c1ccccc1C)Oc1c(F)cccc1-3: 5.73
- CC(C)(Cc1c[nH]c2ccccc12)NS(=O)(=O)c1c(N)cc(Cl)cc1Cl: 6.33
- Cc1cc(C)c(S(=O)(=O)NC(Cn2ccc3c(C#N)cccc32)C(F)(F)F)c(C)c1 (centres undefined): 7.00
- CC(C)(CC(O)(Cn1ccc(=O)c2ccccc21)C(F)(F)F)c1ccccc1 (centres undefined): 6.46
- COC(=O)C1=C(C)NC(C)=C(C#N)C1c1ccccc1Cl (centres undefined): 6.23
- COC(=O)C1=C(C)NC(C)=C(C(=O)OC(C)(C)C)C1c1ccc(Cl)c(F)c1 (centres undefined): 6.24
- CC[C@@H](Cc1ccc(O)c(C)c1)NS(=O)(=O)c1c(C)cc(C)cc1C: 5.64
- COC(=O)C1=C(CCl)NC(C)=C(C#N)[C@H]1c1ccnc2ccccc12: 6.47
- C[C@H](c1ccccc1)N1C(=O)O[C@](Cc2ccccc2)(C(=O)N[C@H]2C[C@@H](c3ccccc3)C2)C1=O: 6.19
- C[C@H](c1ccccc1)N1C(=O)O[C@](Cc2ccccc2)(C(=O)NCc2ccc(Cl)cc2)C1=O: 6.70
- CS(=O)(=O)Nc1ccc2c(c1)C(c1ccccc1)Oc1cccc(OC(F)F)c1-2 (centres undefined): 6.79
- COc1cc(CNC(=O)[C@@]2(Cc3ccccn3)OC(=O)N([C@H](C)c3ccccc3)C2=O)cc(OC)c1: 5.52
- CCOC(=O)C1=C(c2ccccc2)NC(C)=C(C#N)C1c1ccccc1Cl (centres undefined): 6.03
